Recorded EC50 values for a group of molecules are listed next.
System: E. coli C7 (018:K1:H7) LPS heptosylation
ASSAY SUMMARY: Inhibition of E. coli C7 (018:K1:H7) LPS biosynthesis (LPS gel electrophoresis, Re-LPS band)
Type: cell-based
CONDITIONS: Escherichia coli, read-out: EC50 of E. coli C7 LPS heptosylation inhibition
Quick note: give the figure in µM, leave out the unit.

- MOLECULE: "O=CN(O)C[C@H](O)[C@H](O)[C@H](O)COP(=O)([O-])O.[Na+] [Example 2]"
  TEST SYSTEM: "E. coli C7 (018:K1:H7) LPS heptosylation"
  SCALE UNIT: "µM"
  EC50: 18
- MOLECULE: "O=CN(O)C[C@H](O)[C@H](O)[C@H](O)CCP(=O)(O)O [Example 3]"
  TEST SYSTEM: "E. coli C7 (018:K1:H7) LPS heptosylation"
  SCALE UNIT: "µM"
  EC50: 18
- MOLECULE: "O=CN(O)C[C@H](O)[C@H](O)[C@H](O)CC(F)P(=O)(O)O (stereo partly shown) [Example 9]"
  TEST SYSTEM: "E. coli C7 (018:K1:H7) LPS heptosylation"
  SCALE UNIT: "µM"
  EC50: 76

Please examine the following record next.
Entry O=CN(O)C(CO)[C@H](O)[C@H](O)[C@H](O)CCP(=O)(O)O (single isomer, unassigned) [Example 7] has what EC50?
220
